Test: Human HepG2 cell viability assay in 384 well format
Format: toxicity, cell-based
Parameters: dose 125 nL, time 70.5 hour; concentration not given beside the values
Details: HepG2 cells, read-out: Inhibition
Would you mind telling me the reported cytotoxicity at 70.5 h of each entry?
Write the figure, then the unit, nothing else.

// returns reported cytotoxicity at 70.5 h for input Cc1ncnc2c1CCN(C(=O)c1ccncc1)CC2
8.77%

I am curious: what cytotoxicity at 70.5 h value has been reported for Cn1cccc(NC(=O)COc2ccc(Cl)cc2)c1=O ?
-1.21%

Requested field: cytotoxicity at 70.5 h. Item: Cc1cc(C(=O)NC2CCN(c3ncccc3C#N)CC2)no1
-2.85%

What value of measured cytotoxicity at 70.5 h is listed for Cc1noc(C2CCCCN2C(=O)NC2CCCC2)n1 (centres undefined) ?
-7.87%

Which cytotoxicity at 70.5 h is listed for CC(=O)c1cccc(CN2CCCC23CCN(c2ccccn2)CC3)c1 ?
-4.38%

Return reported cytotoxicity at 70.5 h; argument: CCCC(=O)N1CCC(C(=O)NCCN2CCC(C)CC2)CC1
-1.92%

Which cytotoxicity at 70.5 h reading was recorded for the molecule O=C(NCC(O)c1ccc(F)cc1F)c1ccccc1 (centres undefined) ?
-4.27%

# get_value(readout='cytotoxicity at 70.5 h', item= CCc1cc2c(N3CCCC(c4cc(C(N)=O)[nH]n4)C3)ncnc2s1 (centres undefined) )
-4.85%

Need cytotoxicity at 70.5 h of CO[C@H]1CN(C(=O)c2ccc3oc(C)cc3c2)CC[C@@]12CCCO2 , thanks.
-13.4%

Quick one: cytotoxicity at 70.5 h for COc1c(Br)c(CC2CC(CO)=NO2)c(Br)c2c1OCO2 (centres undefined) ?
-7.56%

Return reported cytotoxicity at 70.5 h; argument: O=C1NCCCc2[nH]c(C3CCCN(C(=O)C4CC4)C3)nc21 (centres undefined)
-10.4%

Which cytotoxicity at 70.5 h value is on record for Cc1csc(N2CCCN(C(=O)C(C)n3ccnc3)CC2)n1 (centres undefined) ?
-3.25%

Could you share which cytotoxicity at 70.5 h value was measured for Cc1n[nH]c(C)c1CCC(=O)N1CCc2c(nc[nH]c2=O)C1 ?
-22.4%

Given the entry CCc1cnc2c(c1Nc1ccc(C)c(F)c1)c(=O)n(C)c(=O)n2C , report its measured cytotoxicity at 70.5 h.
-8.17%

Given O=C(CC1CC1)N1Cc2nccn2CC(COc2cccnc2)C1 (centres undefined) , state its recorded cytotoxicity at 70.5 h.
-14.7%

What cytotoxicity at 70.5 h value was documented for this molecule, Cc1cc(SC(C)(C)C)ccc1NCC(=O)NC(N)=O ?
-9.41%

Which cytotoxicity at 70.5 h reading was recorded for the molecule O=C(CN1CCOC(Cn2cccn2)C1)Nc1nncs1 (centres undefined) ?
34.7%

Entry under review: N#Cc1cccnc1N1CCC(C2CCCCCN2C(N)=O)CC1 (centres undefined) . Reported cytotoxicity at 70.5 h?
-3.78%

Returns the measured cytotoxicity at 70.5 h for the input molecule. Input: COc1cccc(CCC2CCCN(C(=O)C3=NN(C)C(=O)CC3)C2)c1 (centres undefined)
-5.36%

Reported cytotoxicity at 70.5 h for O=C(CCOc1ccccc1F)N1CCCC(n2cncn2)C1 (centres undefined) : what is it?
6.03%

Please report the recorded cytotoxicity at 70.5 h for C[C@H]1CN(Cc2cccc(F)c2)C[C@@]12CCN(CC(=O)N(C)C)C2=O .
-5.99%

Tell me the measured cytotoxicity at 70.5 h of NC(c1ccccc1)c1ccc(OC(F)F)cc1 (centres undefined) , please.
6.42%

If you can, please state the reported cytotoxicity at 70.5 h value of CN(C)C(=O)c1ccc2c(c1)N(C)C(CC(=O)NCc1ccno1)CO2 (centres undefined) .
-4.48%

Can you look up the measured cytotoxicity at 70.5 h of COc1c(C2CCCN2Cc2cc(C)no2)c(C)nn1C (centres undefined) for me?
-9.4%
